test system: Plasmodium berghei; assay: Screen against P. berghei liver stage (PbLuc), transformed with Luciferase, at 10uM; assay type: functional, HepG2; conditions: tested at 10 uM
In all, about 69,000 compounds went through this assay and about 8,600 (12%) showed an effect of 50% or more. The list comes from a sample in which strong results are over-represented; it also holds close analogues and randomly drawn compounds.
MEASUREMENT_NAME: INHIBITION (%)
Give bare numbers, in %.

CNc1cc(CCNC(=O)CC(C)C)nc(-c2ccccn2)n1
-27.4

Provide INHIBITION values for the following items, in order.
1. CCCNC(=O)C1CCN(CC(O)c2ccccc2)CC1 (stereo not drawn)
2. O=C([C@@H]1COC[C@H]2CN(CC3CCCC3)C[C@H]21)N1CCOCC1
3. C[C@@H]1CN(c2ccc(Cl)cn2)CC[C@@]1(O)C1CCOCC1
4. O=C(Nc1cnccn1)[C@H]1CC[C@@H]2[C@@H](CCN2Cc2ccccn2)O1
5. CC(C)N1CCc2c(c(COc3cncnc3)nn2CC2CC2)C1
6. O=C([C@H]1COC[C@H]2CN(CC3CCCC3)C[C@H]21)N1CCOCC1
7. C[C@]1(O)CN(Cc2cccc(C(=O)O)c2)CC[C@@H]1Oc1cccc(F)c1

A)
[30, 65.9, 17.215, -5.08, 2.4, 11.3, 17.4]

* * *

test system: Plasmodium berghei; test: Screen against P. berghei liver stage (PbLuc), transformed with Luciferase, at 10uM; format: functional, HepG2; conditions: tested at 10 uM
In all, about 69,000 compounds went through this assay and about 8,600 (12%) showed an effect of 50% or more. The sample as a whole holds a higher share of strong results than the screen did.
Provide the recorded INHIBITION for the entries that follow.

Cc1noc(CNC(=O)C2CSCCC(=O)N2)n1 (stereo unspecified)
61.6%

Provide INHIBITION values for the following items, in order.
1. CC(NC(=O)C1CC1)c1cc(O)nc(-c2cccnc2)n1 (stereo unspecified)
2. Clc1ccccc1CN1CCc2nc(C3CCCCN3)ncc2C1 (stereo unspecified)

A)
10.3035%
43.2%

* * *

tested on: Plasmodium berghei; assay: Screen against P. berghei liver stage (PbLuc), transformed with Luciferase, at 10uM; type: functional, HepG2; details: tested at 10 uM
Out of some 69,000 compounds screened, about 8,600 (12%) showed an effect of 50% or more. The sample as a whole holds a higher share of strong results than the screen did.
Provide the recorded INHIBITION for the entries that follow.
Answers are plain numbers, in %.

# example entries with known answers
COc1ccc(F)cc1S(=O)(=O)NCCn1cnc(C)cc1=O
41.7
CCc1[nH]c2c(CNc3cnccn3)cc(F)cc2c1C
56.3

Provide INHIBITION values for the following items, in order.
1. CCN(CC)c1nc(Nc2cccc(C(C)O)c2)nc2ccccc12 (stereo not drawn)
2. Cc1cnc2c(S(=O)(=O)NC3CCS(=O)(=O)C3)cccc2c1 (stereo not drawn)

A)
[87.2, 10]

* * *

tested on: Plasmodium berghei; experiment: Screen against P. berghei liver stage (PbLuc), transformed with Luciferase, at 10uM; format: functional, HepG2; conditions: tested at 10 uM
Among all 69,000 compounds or so, about 8,600 (12%) showed an effect of 50% or more. The entries come from a sample that favours strong results as a whole.
MEASUREMENT_NAME: INHIBITION
Please provide the amount together with its unit, number first.

Provide INHIBITION values for the following items, in order.
1. CNC(=O)C1Cn2ccnc2C2(CCN(Cc3cccs3)CC2)O1 (centres undefined)
2. Cc1[nH]ncc1C(=O)N1CCCC(c2cc(C(F)(F)F)[nH]n2)C1 (centres undefined)
3. CNC(=O)c1cccnc1N1CCN(C/C=C/c2ccccc2)CC1
4. O=C(O)CCc1nc2nccc(C(F)(F)F)n2n1
5. NC(=O)Cn1cc(NC(=O)N2CCN(c3ccc(F)cc3)CC2)cn1
6. O=S1(=O)NCC2(CCCN(Cc3cccnc3)C2)Oc2ncccc21 (centres undefined)
7. Cn1cc(CN2CCc3ncnc(N4CCOCC4)c3CC2)cn1

A)
["46.2%", "24%", "25.1%", "-25.6%", "7.333%", "40.8%", "5.36%"]

Provide INHIBITION values for the following items, in order.
1. CC(=O)Nc1nc(C2CCN(C(C)=O)CC2)cs1
2. CC(C)(C#N)C(=O)N1CCCC(c2cc(C(F)(F)F)[nH]n2)C1 (centres undefined)
3. O=C(c1ccccn1)N1CCc2c(nc(N3CCCC3)[nH]c2=O)C1
4. CC(=O)Nc1nc(C2CCN(CC(N)=O)CC2)cs1
5. CNC(=O)c1cccnc1N1CCC(Oc2ccc(F)cc2)CC1

A)
1. 27.9%
2. 55.5%
3. 50%
4. 63.7%
5. 93.6%
